Field: GI50. Provide a value for each of the molecules that follow.
test system: 786-0; assay: NCI tumour cell line growth inhibition, 48 h
Active and inactive are the calls of the source. Rule as the data show it: active = GI50 up to about 1.1 µM and inactive = higher.

Lookup result for CC1(C)CCC(=O)NC1CC(=O)CC1NC(=O)CCC1(C)C (stereo not given) ; measured GI50: > 100 µM (inactive)

Lab book: GI50 of CCCCOC(=O)NC(Nc1ccc(S(=O)(=O)Nc2ncccn2)cc1)(C(F)(F)F)C(F)(F)F noted as > 100 µM (inactive)

GI50 measured on O=C1/C(=N/c2ccccc2)Oc2cc(O)ccc21 = > 100 µM (inactive)

Entry under test: COc1ccc2[nH]c3c(C)c4ncccc4c(C)c3c2c1 . Its GI50 was 1.52 µM (inactive)

Input C/C(=C\COc1ccc2ccc(=O)oc2c1)C1=CC(=O)C(C)(C)O1 . Output GI50: 3.74 µM (inactive)

Value of measured GI50 for the entry O=[N+]([O-])c1ccc(OP(=O)(O)OCC2OC(CP(=O)(O)O)C(O)C2O)cc1 (stereo not given) : > 100 µM (inactive)

Recorded result, CCn1c(=O)c2c3ccc(O)cc3oc2c2ccc(O)cc21 , GI50: 63.4 µM (inactive)

Query C(=N\c1ccc(-c2nc3ccccc3s2)cc1)/c1ccco1 yields GI50 of 83 µM (inactive)

// GI50 lookup, molecule = O=[N+]([O-])c1cc(/C=N/NS(=O)(=O)c2ccc(F)cc2)c(O)c([N+](=O)[O-])c1 , result: 41.3 µM (inactive)

For O=C(O)CCC(/N=C(\C(=N\C(CCC(=O)O)C(=O)O)c1ccccc1)c1ccccc1)C(=O)O (stereo not given) the molecule record lists GI50 as > 100 µM (inactive)

----------
system: PC-3; assay: NCI tumour cell line growth inhibition, 48 h
The source made the active and inactive calls. Cut-off read from the data, not from the text of the source: active = GI50 up to about 1.1 µM and inactive = higher.
valueKind: GI50

Per the records, this compound ( CN(C)CCCNc1c2c(nc3ccc(Cl)cc13)CCCC2 ) has GI50 equal to 13.7 µM (inactive)

The reported GI50 of the compound C=C(Cl)C(Cl)(CBr)CCCC(C)(C)Cl (stereo not given) was 3.25 µM (inactive)

get_value(item= COc1c(OC(C)=O)c(OC(C)=O)cc2c1-c1ccc(OC)c(=O)cc1C(NC(C)=O)CC2 (stereo not given) , readout=GI50) returns 0.0493 µM (active)

Form: compound = COC(=O)C(Cc1ccccc1)NC(=O)c1ccc(CNC(=S)NCc2cccc(CNC(=S)NCc3ccccc3)c2)cc1 (stereo not given) ; GI50 = > 32 µM (inactive)

Please fill in: GI50 reported for Cc1ccc(S(=O)(=O)SC/C=C\CSS(=O)(=O)c2ccc(C)cc2)cc1 = 19.9 µM (inactive)

----------
test system: NCI-H522; test: NCI tumour cell line growth inhibition, 48 h
Active and inactive are the calls of the source. Rule as the data show it: active = GI50 up to about 1.1 µM and inactive = higher.
So I've got a bunch of molecules here, and I need their GI50 values.

Memo: O=C(CC1(O)C(=O)Nc2c(Cl)ccc(Cl)c21)c1ccc(F)cc1 (configuration not stated) , reported GI50: 30.3 µM (inactive)

Recorded result, CN1CC(C(=O)C2C(=O)c3ccccc3C2=O)C(=O)C(=O)C(C(=O)C2C(=O)c3ccccc3C2=O)C1 (configuration not stated) , GI50: > 100 µM (inactive)

response.value for Cc1c2c(c(C)c3c[n+](C)ccc13)Oc1ccccc1O2 (field: GI50) = 4.42 µM (inactive)

Lab book: GI50 of c1ccc(-c2cn3nc(N4CCOCC4)sc3n2)cc1 noted as > 100 µM (inactive)

Data point: CCOC(=O)CSc1c(C(=O)OCC)c(=O)n(-c2ccccc2)c(=S)n1-c1ccccc1 ; GI50 = > 100 µM (inactive)

Entry CCn1c2ccc(C(=O)CCCN3CCCCC3)cc2c2cc(C(=O)CCCN3CCCCC3)ccc21 — recorded GI50 = 1.56 µM (inactive)

// sample COc1ccc(NC(=O)CC(=O)N/N=C(\C)c2cc3ccccc3oc2=O)cc1 , its GI50 was > 100 µM (inactive)

The reported GI50 of the molecule Oc1cc(-c2cccc(OCc3ccccc3)c2)nc2cc3c(cc12)OCO3 was 0.268 µM (active)

The measured GI50 associated with C/C(=N/O)c1ccc2c(c1)/C(=N/O)c1cc(/C(C)=N/O)ccc1-2 reads 18.9 µM (inactive)

The recorded GI50 for CCN1c2ccccc2C(C(SC)S(=O)(=O)c2ccc(C)cc2)c2c1[nH]c(=O)n(C)c2=O (configuration not stated) is > 100 µM (inactive)

Quick note, GI50 for COC(=O)[C@H](Cc1ccccc1)NC(=O)CCCCCCC(=O)NO landed at 4.68 µM (inactive)

Memo: Nc1nc(Cl)cc(NCC2(CO)CC=CC2)n1 , reported GI50: 68.7 µM (inactive)
